B1: TPR 5TU (parent)
chain: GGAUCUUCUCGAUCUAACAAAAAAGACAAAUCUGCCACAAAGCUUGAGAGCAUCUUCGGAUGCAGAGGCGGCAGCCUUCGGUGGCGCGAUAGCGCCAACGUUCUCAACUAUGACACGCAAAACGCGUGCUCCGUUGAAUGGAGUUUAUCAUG

Variants of: B1
Experiment: polymerase ribozyme fitness, log enrichment relative to wild type (log ratio); higher = more active; in vitro selection for triplet polymerase activity
Fewer inactive variants are shown than the library holds.
QUANTITY_MEASURED: polymerase ribozyme fitness (log ratio)

In [3]: df
Out[3]:
                                         var  inequality_operator  endpoint_value
 0        U7C A23G A49U U56G G84U G86U A137U                    ≤            -4.2
 1           G58C A64C C69G C85U A110U U134G                    ≤            -4.2
 2  C14G C35G U82G G92A C96A G100A C116G A120G G141A U144A                    ≤            -4.2
 3                         U109G A115U C125A                    =           -4.05
 4  U45A U56G A66C G67C G71U C85G G88U A89G C99U A110G C132G                    ≤            -4.2
 5               U82A C93U A119U U127G G143C                    =           -4.06
 6      A40G U56A G59U G68A C95A U135A A150U                    ≤            -4.2
 7                                C85A G152C                    =           -2.88
 8                                 G70C G94C                    =           -3.44
 9  A22U C27G G50C G58C A97G C103G A110U U139A                    ≤            -4.2
10                     A22C G92C U109C U148A                    =           -4.16
